For each entry below, report its cell number in HSV-1-infected wells value.
# Test system: A549 infected with HSV-1
# PROTOCOL SUMMARY: cell number in HSV-1-infected wells relative to infected DMSO wells (H2B-RFP signal); higher = more surviving cells (uninfected or antiviral-protected wells give about 200%; low = toxicity)
# STATED CONDITIONS: 10 µM; 48 h; MOI: 0.1
Where a name gives a salt, the structure may show the parent alone. Over roughly 1,700 compounds, “cell number in HSV-1-infected wells relative to infected DMSO wells (H2B-RFP signal)” has its median near 100; the highest 2% begin near 140. The full list was thinned out, with the highest values kept by preference.
Answer by giving the amount and then stating its unit.

Recall the recorded cell number in HSV-1-infected wells for `CC(=O)c1cc2c(o1)C(=O)c1ccccc1C2=O` with A549 infected with HSV-1 and state it.
27.4%

Would you mind doing CC(C)[C@H](N)C(=O)OCC(CO)OCn1cnc2c(=O)[nH]c(N)nc21 (some centres undefined) [Valganciclovir HCl] as well?
207%

// repeat for `CC(C)C[C@H](NC(=O)[C@@H](NC(=O)c1cccc(-c2ccccc2)n1)[C@@H](C)O)B(O)O` and report
79.7%

Next up: `CCOc1ccc(Cc2cc([C@]34OC[C@](CO)(O3)[C@@H](O)[C@H](O)[C@H]4O)ccc2Cl)cc1`
116%

# iterate: `CCOC(=O)[C@H]1O[C@@H]1C(=O)N[C@@H](CC(C)C)C(=O)NCCC(C)C`
150%

Could you do the same for `Cc1cccc(Nc2ccccc2C(=O)O)c1C` , please?
94.2%

Same thing, different compound: `Cc1c(Cl)cccc1Nc1ccccc1C(=O)O`
120%

// query: CCCC(CCC)C(N)=O [Valpromide]
91.6%

Now the compound N[C@@H](Cc1c[nH]c2ccc(O)cc12)C(=O)O [5-hydroxytryptophan (5-HTP)]
121%
